- Test system: SA 2 (Staphylococcus aureus 2)
- experimental_protocol: MIC
- Type: cell-based
- test_settings: SA 2, read-out: MIC
observable: MIC

CCN1C(=O)C2Cc3c([nH]c4ccccc34)CN2C1=S (stereo not shown) [Compound #740] = 32 µg/mL
Brc1ccc(-c2nc(N3CCNCC3)c3ccccc3n2)cc1 [Compound #880] = 4 µg/mL
Cc1ccc2nc(-c3ccc(NC(=O)CN4CCN(CCO)CC4)cc3)sc2c1 [Compound #169] = 8 µg/mL
O=C(O)C(c1ccccc1)N1C(=O)C(=Cc2c[nH]c3ccccc23)SC1=S (stereo not shown) [Compound 537] = 128 µg/mL
COc1ccc2c(c1)c(=O)oc1c(C)c(OC(C(=O)O)c3ccccc3)ccc12 (stereo not shown) [Compound #211] = 128 µg/mL

List MIC for every entry below, keeping the order given.
1. CN1CCN(c2nc(C=Cc3ccccc3)nc3ccccc23)CC1 [Compound #096]
2. Oc1ccccc1N=Cc1c(O)c(Br)cc2oc3c(c12)CCCC3 [Compound 136]

Resp:
["32 µg/mL", "16 µg/mL"]
